Tgt: Lanosterol 14-alpha demethylase (Candida albicans (strain SC5314 / ATCC MYA-2876) (Yeast))
Sequence (P10613 whole entry): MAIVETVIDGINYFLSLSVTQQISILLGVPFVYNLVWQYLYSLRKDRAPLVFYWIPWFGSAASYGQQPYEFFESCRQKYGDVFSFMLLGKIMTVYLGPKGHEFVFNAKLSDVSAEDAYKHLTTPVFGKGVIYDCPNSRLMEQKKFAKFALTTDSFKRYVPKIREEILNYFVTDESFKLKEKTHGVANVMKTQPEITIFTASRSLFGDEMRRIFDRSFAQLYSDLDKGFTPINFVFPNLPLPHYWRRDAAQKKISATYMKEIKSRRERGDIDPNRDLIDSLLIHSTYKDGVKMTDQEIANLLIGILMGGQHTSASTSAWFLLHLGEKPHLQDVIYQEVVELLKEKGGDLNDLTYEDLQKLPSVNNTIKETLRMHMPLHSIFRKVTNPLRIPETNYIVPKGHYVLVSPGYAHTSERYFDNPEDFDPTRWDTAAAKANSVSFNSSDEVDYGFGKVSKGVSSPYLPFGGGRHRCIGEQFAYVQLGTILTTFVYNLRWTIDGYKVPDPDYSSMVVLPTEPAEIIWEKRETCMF
Assay Explanation: Binding affinity to Candida albicans CYP51
Measurement Kind: Kd (µM)

| Smiles Repr | Quantitative Result |
| --- | --- |
| OC(Cn1cncn1)(Cn1cncn1)c1ccc(F)cc1F | 0.045 |

---

Tgt: Sterol 14-alpha demethylase cyp51A (Neosartorya fumigata (strain ATCC MYA-4609 / Af293 / CBS 101355 / FGSCA1100) (Aspergillus fumigatus))
Sequence (Q4WNT5 whole entry): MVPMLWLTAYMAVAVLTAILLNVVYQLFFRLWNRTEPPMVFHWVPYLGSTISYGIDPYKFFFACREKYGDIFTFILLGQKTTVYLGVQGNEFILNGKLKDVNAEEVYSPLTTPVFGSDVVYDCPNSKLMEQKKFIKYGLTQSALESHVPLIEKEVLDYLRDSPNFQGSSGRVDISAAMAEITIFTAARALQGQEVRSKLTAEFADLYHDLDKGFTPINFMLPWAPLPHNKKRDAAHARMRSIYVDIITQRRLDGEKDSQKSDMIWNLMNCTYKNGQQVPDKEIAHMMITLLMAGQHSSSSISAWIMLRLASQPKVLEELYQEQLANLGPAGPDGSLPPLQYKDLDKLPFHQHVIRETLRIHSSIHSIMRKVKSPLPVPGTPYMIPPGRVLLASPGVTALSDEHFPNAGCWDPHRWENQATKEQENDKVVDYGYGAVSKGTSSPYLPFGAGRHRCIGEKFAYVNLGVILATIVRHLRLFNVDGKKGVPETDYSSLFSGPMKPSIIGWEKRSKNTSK
Assay Explanation: Binding affinity to Aspergillus fumigatus AF293 sterol 14-alpha demethylase isoenzyme A expressed in Escherichia coli
Measurement Kind: Kd (µM)

| Compound | Quantitative Result |
| --- | --- |
| C[C@@H](c1ncncc1F)[C@](O)(Cn1cncn1)c1ccc(F)cc1F [VORICONAZOLE] | 3.63 |
| CCC(C)n1ncn(-c2ccc(N3CCN(c4ccc(OCC5COC(Cn6cncn6)(c6ccc(Cl)cc6Cl)O5)cc4)CC3)cc2)c1=O (stereo not given) [ITRACONAZOLE] | 1.01 |
| Clc1ccccc1C(c1ccccc1)(c1ccccc1)n1ccnc1 [CLOTRIMAZOLE] | 4.79 |
| OC(Cn1cncn1)(Cn1cncn1)c1ccc(F)cc1F [FLUCONAZOLE] | 11.9 |
| CC[C@@H]([C@H](C)O)n1ncn(-c2ccc(N3CCN(c4ccc(OC[C@@H]5CO[C@@](Cn6cncn6)(c6ccc(F)cc6F)C5)cc4)CC3)cc2)c1=O [POSACONAZOLE] | 2.69 |

---

Tgt: 14-alpha sterol demethylase (Neosartorya fumigata (Aspergillus fumigatus), UniProt Q96W81)
Sequence (Q96W81 whole entry): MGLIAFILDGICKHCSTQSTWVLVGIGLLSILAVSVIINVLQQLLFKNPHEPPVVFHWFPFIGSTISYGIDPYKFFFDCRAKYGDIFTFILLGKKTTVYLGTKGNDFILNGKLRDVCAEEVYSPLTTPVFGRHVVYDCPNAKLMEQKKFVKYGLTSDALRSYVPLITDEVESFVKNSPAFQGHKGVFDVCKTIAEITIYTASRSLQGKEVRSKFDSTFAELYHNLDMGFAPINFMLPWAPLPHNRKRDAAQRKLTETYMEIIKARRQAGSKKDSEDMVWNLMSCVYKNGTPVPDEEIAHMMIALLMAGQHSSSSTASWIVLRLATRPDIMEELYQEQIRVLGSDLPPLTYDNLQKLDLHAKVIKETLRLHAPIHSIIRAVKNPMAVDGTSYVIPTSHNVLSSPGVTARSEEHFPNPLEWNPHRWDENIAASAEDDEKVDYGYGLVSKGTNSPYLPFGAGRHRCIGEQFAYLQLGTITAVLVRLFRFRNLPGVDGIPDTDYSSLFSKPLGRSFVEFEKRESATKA
Assay Explanation: Binding affinity to Aspergillus fumigatus AF293 sterol 14-alpha demethylase isoenzyme B expressed in Escherichia coli assessed as tight binding affinity constant
pKd: −log10 of the molar value.

| Molecule | pKd |
| --- | --- |
| Clc1ccccc1C(c1ccccc1)(c1ccccc1)n1ccnc1 | 6.99 |
| CC[C@@H]([C@H](C)O)n1ncn(-c2ccc(N3CCN(c4ccc(OC[C@@H]5CO[C@@](Cn6cncn6)(c6ccc(F)cc6F)C5)cc4)CC3)cc2)c1=O | 7.14 |
| CCC(C)n1ncn(-c2ccc(N3CCN(c4ccc(OCC5COC(Cn6cncn6)(c6ccc(Cl)cc6Cl)O5)cc4)CC3)cc2)c1=O (centres undefined) | 7.51 |
| C[C@@H](c1ncncc1F)[C@](O)(Cn1cncn1)c1ccc(F)cc1F | 6.37 |

---

Tgt: UniProt:Q96W81
Assay Explanation: Binding affinity to Aspergillus fumigatus AF293 sterol 14-alpha demethylase isoenzyme B expressed in Escherichia coli
Measurement Kind: Kd (nM)

| Smiles Repr | Measurement Units | Quantitative Result |
| --- | --- | --- |
| C[C@@H](c1ncncc1F)[C@](O)(Cn1cncn1)c1ccc(F)cc1F | nM | 423 |
